Would you mind telling me the reported Kd of each entry?
- EXPERIMENTAL TARGET: T1, recombinant human IL-23R/Fc chimera (R&D Systems) (human, UniProt Q5VWK5 24-355)
- T1 construct: Bought; also called rhIL23RFc
- T1 sequence (looked up): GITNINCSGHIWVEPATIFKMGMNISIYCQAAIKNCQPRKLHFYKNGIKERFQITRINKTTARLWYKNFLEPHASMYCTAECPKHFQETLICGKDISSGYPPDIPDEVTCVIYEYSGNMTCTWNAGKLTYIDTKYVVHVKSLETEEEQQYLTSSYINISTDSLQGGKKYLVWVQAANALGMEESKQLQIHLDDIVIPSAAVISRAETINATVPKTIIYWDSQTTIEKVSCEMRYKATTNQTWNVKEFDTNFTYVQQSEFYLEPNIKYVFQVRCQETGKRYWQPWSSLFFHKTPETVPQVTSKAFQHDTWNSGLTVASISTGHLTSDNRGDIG
- PROTOCOL: SPR
Answers are plain numbers, in nM.

- BINDER: "001-89.C7F monomeric CTLD (designed binder) ALQTVCLKGTKVHMKCFLAFTQTKTFHEASEDCISRGGTLSTPQTGSENDALYEYLRQSVGNEAEIWLGLNGSLLTGLWVDMTGARIAYKNWETEITAQPDGGYGAWGENCAVLSGAANGKWFDKRCRDQLPYICQFGIV"
  READOUT UNITS: "nM"
  Kd: 148
- BINDER: "105-08-1D3 ATRIMER complex (designed binder) EPPTQKPKKIVNAKKDVVNTKMFEELKSRLDTLAQEVALLKEQQALQTVCLKGTKVHMKCFLAFTQTKTFHEASEDCISRGGTLSTPQTGSENDALYEYLRQSVGNEAEIWLGLNGSKVTETWVDMTGARIAYKNWETEITAQPDGGFGYFGENCAVLSGAANGKWFDKRCRDQLPYICQFGIV"
  READOUT UNITS: "nM"
  Kd: 1.32
- BINDER: "105-20-2A3 ATRIMER complex (designed binder, Homotrimer of three identical chains (ATRIMER complex); one chain is given., not shown: C-terminal tag: His/Myc (pANA4) or HA-StrepII (pANA10)) EPPTQKPKKIVNAKKDVVNTKMFEELKSRLDTLAQEVALLKEQQALQTVCLKGTKVHMKCFLAFTQTKTFHEASEDCISRGGTLSTPQTGSENDALYEYLRQSVGNEAEIWLGLNGSPITNTWVDMTGARIAYKNWETEITAQPDGGFGYFGENCAVLSGAANGKWFDKRCRDQLPYICQFGIV"
  READOUT UNITS: "nM"
  Kd: 0.759
- BINDER: "001-69.4G8 monomeric CTLD (designed binder, C-terminal tag not specified; not shown: C-terminal tag: 6xHis (pANA1), HA-His (pANA3) or HA-StrepII (pANA12)) ALQTVCLKGTKVHMKCFLAFTQTKTFHEASEDCISRGGTLSTPQTGSENDALYEYLRQSVGNEAEIWLGLNGSRRSGVWVDMTGARIAYKNWETEITAQPDGGFGVFGENCAVLSGAANGKWFDKRCRDQLPYICQFGIV"
  READOUT UNITS: "nM"
  Kd: 54
- BINDER: "105-20-1H1 ATRIMER complex (designed binder) EPPTQKPKKIVNAKKDVVNTKMFEELKSRLDTLAQEVALLKEQQALQTVCLKGTKVHMKCFLAFTQTKTFHEASEDCISRGGTLSTPQTGSENDALYEYLRQSVGNEAEIWLGLNGSPLTNTWVDMTGARIAYKNWETEITAQPDGGWGYFGENCAVLSGAANGKWFDKRCRDQLPYICQFGIV"
  READOUT UNITS: "nM"
  Kd: 0.857

Now take the following binder into account.
The value of Kd measured for the binder 101-51-1A3 ATRIMER complex (designed binder, Forms a homotrimer through the tetranectin coiled coil; one protomer is given., not shown: C-terminal tag: His/Myc (pANA4) or HA-StrepII (pANA10)) EPPTQKPKKIVNAKKDVVNTKMFEELKSRLDTLAQEVALLKEQQALQTVCLKGTKVHMKCFLAFTQTKTFHEASEDCISRGGTLSTPQTGSENDALYEYLRQSVGNEAEIWLGLNGSALTNTWVDMTGARIAYKNWEHQPVYQPGGGWGVFGENCAVLSGAANGKWFDKRCRDQLPYICQFGIV turned out to be 0.565
